Where do these numbers come from? They come from patent US20250277059A1.

Target: T1, Human TMPRSS2 expressed on cells (human, UniProt O15393 1-492)
T1 construct: also called TMPRSS2 expressing cells; Daudi-TMPRSS2 transfectant
T1 sequence (O15393 whole entry): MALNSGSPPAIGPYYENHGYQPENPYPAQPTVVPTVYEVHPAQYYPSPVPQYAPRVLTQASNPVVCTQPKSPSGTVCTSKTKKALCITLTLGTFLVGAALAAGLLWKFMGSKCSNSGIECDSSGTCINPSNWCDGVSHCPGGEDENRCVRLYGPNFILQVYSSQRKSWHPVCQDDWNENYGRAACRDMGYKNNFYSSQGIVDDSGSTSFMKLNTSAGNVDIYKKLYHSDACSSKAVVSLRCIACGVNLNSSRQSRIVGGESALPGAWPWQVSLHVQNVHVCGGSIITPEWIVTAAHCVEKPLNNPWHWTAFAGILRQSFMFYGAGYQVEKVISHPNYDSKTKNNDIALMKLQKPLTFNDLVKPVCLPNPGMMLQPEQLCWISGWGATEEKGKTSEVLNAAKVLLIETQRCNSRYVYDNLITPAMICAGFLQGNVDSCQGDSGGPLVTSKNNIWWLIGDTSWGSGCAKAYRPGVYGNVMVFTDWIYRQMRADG
Result Type: APC median at 3 µg/ml
Enter the number alone.

humanized 2228-15 IgG4 (S108P) prototype #2 (antibody, V domains shown, also called hu #2) VH: QVQLVQSGAEVKKPGASVKVSCKASGYTFTDYYINWVRQAPGQGLEWMGWIFPGSGSSYYNAIFKGRVTMTRDTSISTAYMELSRLRSDDTAVYYCARGDFGNFGGFFTYWGQGTLVTVSS VL: DIVMTQSPDSLAVSLGERATINCRASKSVSTSGYSFMHWYQQKPGQPPKLLIYLASNLESGVPDRFSGSGSGTDFTLTIRPLQAEDVAVYYCQHSRELPLTFGQGTKLEIK; 2540

IN: Give the measured APC median at 3 µg/ml of humanized 752-1 IgG4 (S108P) prototype #3 (antibody, V domains shown, also called humanized #3; hu #3) VH: QVQLQQSGTGLARPGASVKLSCKASGYTFTSCGISWVTQRAGQGLEWIGEIYPRGGNTYYNEKFKGKATLTADKSSSSAYMELRGLTAEDSAVYFCARENGNYDPLFAYWGQGTTLTVSS VL: DIQMTQSPSSLSASVGDRVTITCKASQDINKYIAWYQQKPGKAPKLLIYYTSTLQPGVPSRFSGSGSGTDFTFTISSLQPEDIATYYCLQYYNLWTFGGGTKVEIK .
OUT: 1560

IN: Record request: APC median at 3 µg/ml value, item 752_1 human IgG4 chimeric antibody (antibody, V domains shown) VH: QVQLQQSGAELARPGASVKLSCKASGYTFTSCGISWVKQRTGQGLEWIGEIYPRGGNTYYNEKFKGKATLTADKSSSTAYMELRSLTSEDSAVYFCARENGNYDPLFAYWGQGTLVTVSA VL: DIQMTQSPSSLSASLGGKVTITCKASQDINKYIAWYQHKPGKGPRLLIHYTSTLQPGIPSRFSGSGSGRDYSFSIYNLEPEDIATYYCLQYYNLWTFGGGTKLEIK
OUT: 2040

IN: Would you mind telling me what APC median at 3 µg/ml value was observed for humanized 752-1 IgG4 (S108P) prototype #4 (antibody, V domains shown, also called humanized #4; hu #4) VH: QVQLQQSGTGLARPGASVKLSCKASGYTFTSCGISWVTQRAGQGLEWIGEIYPRGGNTYYNEKFKGKATLTADKSSSSAYMELRGLTAEDSAVYFCARENGNYDPLFAYWGQGTTLTVSS VL: DIQMTQSPSSLSASVGDRVTITCKASQDINKYIAWYQQKPGKAPKLLIHYTSTLQPGVPSRFSGSGSGTDFTFTISSLQPEDIATYYCLQYYNLWTFGGGTKVEIK ?
OUT: 1650
